- Test system: T1, 4H2444-bA
- T1 chain: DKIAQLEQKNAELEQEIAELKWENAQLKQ
- Experiment description: two-hybrid library CCNG1;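 further: natural log of median RNA to DNA barcode read ratio; higher means stronger binding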
Property: interaction score

{"columns": ["Binder", "interaction score"],
 "data": [
  ["DKIQQLEQEIQELKQKNQELEWEIQELKQ [4H2162-bN]", -0.359]
]}

1 = DKIAQLEQENAELKQEIAELKWKIAQLEQ [4H2253-bA]
2 = DEIAQLEQENAELKQKIAELKWENAQLEQ [4H235-bA]
*Q* Kindly identify the item with the lower interaction score figure among these two: 1 and 2 I would appreciate it if you answered with the label of your choice.
*A* 2

I = DKIAQLEQEIAELKQKNAELEWEIAQLKQ [4H2162-bA]
II = DKIAQLEQENAELEQKNAELKWEIAQLEQ [4H2233-bA]
III = DEIAQLEQENAELEQKIAELEWKIAQLKQ [4H166-bA]
*Q* Ordering: ascending interaction score. As an answer, provide the labels arranged in the order called for.
*A* II, III, I
(II: -1.1, III: 0.00294, I: 0.102)
